Here the recorded Kd is given for each entry.
TESTED SYSTEM: Pry1 (Saccharomyces cerevisiae, UniProt P47032)
Construct: made in house; host or cells: Escherichia coli BL21
Sequence (P47032 20-299): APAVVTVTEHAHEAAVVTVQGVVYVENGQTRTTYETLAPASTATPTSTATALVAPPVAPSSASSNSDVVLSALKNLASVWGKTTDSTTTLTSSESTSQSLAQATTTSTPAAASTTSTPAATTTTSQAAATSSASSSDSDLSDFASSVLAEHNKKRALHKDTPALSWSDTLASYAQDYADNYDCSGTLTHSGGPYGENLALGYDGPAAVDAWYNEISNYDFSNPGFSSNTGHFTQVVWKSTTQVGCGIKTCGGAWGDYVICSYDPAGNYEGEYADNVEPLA
METHOD: Microscale thermophoresis
CONDITION DETAILS: His-tagged Pry1, N/A where there is no binding, mean ± SD of three experiments, read-out: Kd
Just the number please, in µM, no unit attached.

Some compounds with recorded Kd:
>  <COMPOUND>
C[C@@H](O)CCCC/C=C/C(=O)O [(R,E)-8-hydroxynon-2-enoic acid, (R, E)-8-hydroxynon-2-enoic acid]

>  <VALUE MEASURED>
900

$$$$
>  <COMPOUND>
C[C@@H](O)CCCCCCC(=O)O [(R)-8-hydroxynonanoic acid]

>  <VALUE MEASURED>
600

$$$$
>  <COMPOUND>
CCCCCCCCCCCCCCCC(=O)O [palmitic acid, reference compound]

>  <VALUE MEASURED>
120

$$$$

Let us move to another entry and its Kd.
Quick check: Kd of O=C(O)CCCCCCCCO [9-hydroxynonanoic acid] ?
650
